Test system: UMUC3
TEST DESCRIPTION: Antiproliferative activity against human UMUC3 cells assessed as reduction in cell proliferation incubated for 72 hrs by Cell Titer Glo assay
Format: functional, cell-based
COND: UMUC3, 72 h
PROPERTY LABEL: EC50 (µM)
Entry rule: numbers only, all in µM.

Fc1ccc2[nH]c(CNc3nc(N4CCOCC4)nc4c3ncn4-c3ccc4ccccc4c3)nc2c1F ... 0.54
Fc1cccc(-n2cnc3c(NCc4nc5c(F)c(F)ccc5[nH]4)nc(N4CCOCC4)nc32)c1 ... 0.026

Would you kindly look at the next entry?
GET /value?item= `COc1ccc(-n2cnc3c(NCc4nc5c(F)c(F)ccc5[nH]4)nc(N4CCOCC4)nc32)cc1` &field=EC50 returns 5.78
